# experiment: qHTS assay to identify small molecule antagonists of the retinoic acid receptor (RAR) signaling pathway (AID 1159552; further: nearly all actives have a fitted effect of over 50% in size)
# condition-info: C3RL4 RARE luciferase reporter, retinol-stimulated, 6 h; series mostly up to 92.4 µM
# Text: National Center for Advancing Translational Sciences [NCATS] NIH Chemical Genomics Center [NCGC] U.S. Environmental Protection Agency [EPA] National Institutes of Environmental Health Sciences [NIEHS] National Toxicology Program [NTP] U.S. Food and Drug Administration [FDA] […]
Inconclusive results are not listed. Active and inactive are the calls of the source. The call rests on the fitted dose curve; in most records, active means well fitted inhibition curve with a large enough effect in the repeat runs; inconclusive means weak or mixed curves, or effect the other way; inactive means no such curve, though single readings can be large or run the other way.
Field 'call' accepts active, inactive

Would you please look over these solved cases?
substance-smiles	category-label
COc1ccc(CCC(=O)c2c(O)cc(O[C@@H]3O[C@H](CO)[C@@H](O)[C@H](O)[C@H]3O[C@@H]3O[C@@H](C)[C@H](O)[C@@H](O)[C@H]3O)cc2O)cc1O	inactive
NC(=O)Nc1ccc(Cl)c(Cl)c1	inactive
CNCCCC1c2ccccc2C=Cc2ccccc21	active
CCCOc1ccc(S(=O)(=O)N2CCN(CC)CC2)cc1-c1nc2c(CC)n(Cc3ccccn3)nc2c(=O)[nH]1	inactive
COC(=O)[C@@H]1CC2=CC(=O)CC[C@]2(C)[C@@]23O[C@@H]2C[C@@]2(C)[C@@H](CC[C@@]24CCC(=O)O4)[C@H]13	inactive

I'd appreciate the recorded outcome for CC(C)CCCCCCOC(=O)CCCCC(=O)OCCCCCCC(C)C from this test.
inactive

I'd appreciate the recorded outcome for CC(C)CCCCCOC(=O)CCCCC(=O)OCCCCCC(C)C from this test.
inactive

I'd appreciate the recorded outcome for CC(C)(C)C(=O)O from this test.
inactive

I'd appreciate the recorded outcome for O=C(O)c1cccnc1C(=O)O from this test.
inactive

---

# system-under-test: Cytochrome P450 2C19 (Homo sapiens) (UniProt P33261)
# Sequence (P33261 whole entry, looked up): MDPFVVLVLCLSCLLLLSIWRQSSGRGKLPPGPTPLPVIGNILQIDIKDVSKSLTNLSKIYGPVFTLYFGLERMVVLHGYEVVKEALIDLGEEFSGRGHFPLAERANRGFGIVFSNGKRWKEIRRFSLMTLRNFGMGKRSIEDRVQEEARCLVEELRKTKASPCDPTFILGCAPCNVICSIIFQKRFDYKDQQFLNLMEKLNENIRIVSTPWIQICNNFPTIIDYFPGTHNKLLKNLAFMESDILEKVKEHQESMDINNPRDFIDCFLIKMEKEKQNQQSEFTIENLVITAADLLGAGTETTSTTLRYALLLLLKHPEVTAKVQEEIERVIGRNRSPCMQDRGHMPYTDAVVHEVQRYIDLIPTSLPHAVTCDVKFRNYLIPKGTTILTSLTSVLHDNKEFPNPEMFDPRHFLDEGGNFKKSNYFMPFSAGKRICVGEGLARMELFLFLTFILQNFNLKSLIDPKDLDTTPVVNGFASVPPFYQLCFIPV
# experiment: Cytochrome P450 Family 2 Subfamily C Member 19 (CYP2C19) small molecule antagonists: luciferase reporter qHTS assay (AID 1671197); further: nearly all actives have a fitted effect of over 65% in size
# condition-info: P450-Glo CYP2C19 enzyme, luciferin luminescence, 1 h; series mostly up to 115 µM
Inconclusive results are not listed. The source made the active and inactive calls. The call rests on the fitted dose curve; in most records, active means well fitted inhibition curve with a large enough effect in the repeat runs; inconclusive means weak or mixed curves; inactive means no such curve, though single readings can be large or run the other way.
Field 'call' accepts active, inactive

compound	system-under-test	category-label
CCOC(=O)c1ccccc1OC	Cytochrome P450 2C19 (Homo sapiens) (UniProt P33261)	active

I'd appreciate the recorded outcome for CCCCCCOC(=O)CCCCCCCC(=O)OCCCCCC from this test.
inactive

I'd appreciate the recorded outcome for O=C(CCCCCCCCC#CI)Oc1ccccc1 from this test.
inactive

I'd appreciate the recorded outcome for CO[C@H]1C=CO[C@@]2(C)Oc3c(C)c(O)c4c(O)c(c5c(c4c3C2=O)=NC2(CCN(CC(C)C)CC2)N=5)NC(=O)/C(C)=C\C=C/[C@H](C)[C@H](O)[C@@H](C)[C@@H](O)[C@@H](C)[C@H](OC(C)=O)[C@@H]1C from this test.
active

I'd appreciate the recorded outcome for CCOC(=O)C(C)Oc1ccc(Oc2nc3ccc(Cl)cc3o2)cc1 (stereo unspecified) from this test.
active

I'd appreciate the recorded outcome for C1COCO1 from this test.
inactive

I'd appreciate the recorded outcome for CNCCCC1c2ccccc2C=Cc2ccccc21 from this test.
inactive

---

# system-under-test: Estrogen receptor (Homo sapiens)
# experiment: qHTS assay to identify small molecule agonists of the estrogen receptor alpha (ER-alpha) signaling pathway in the presence of an antagonist (AID 1259383); further: top concentration of the series differs between compounds; nearly all actives have a fitted effect of over 15% in size
# condition-info: VM7Luc4E2 cells, ERE-luciferase, +ICI-182,780, 22 h; series mostly up to 92.4 µM
Activity calls are given as the source filed them. Calls follow the shape of the full dose curve.
parameter-measured: activation

molecule	activation
ON(Cc1ccccc1)Cc1ccccc1	inactive
CCCCCC=CCC=CCCCCCCCC(=O)OCC	inactive
Cc1ccc(S(=O)(=O)NC2CCCCC2)cc1	inactive
CN(C)CCOC1=Cc2ccccc2Sc2ccc(Cl)cc21	inactive
CC(C)(C)C(=O)C(Oc1ccc(Cl)cc1)n1ccnc1 (stereo not drawn)	inactive
CC(=O)N(c1onc(C)c1C)S(=O)(=O)c1ccc(N)cc1	inactive
CCCOCCOCCO	inactive
O=C(CCCCCCC(=O)Nc1ccccc1)NO	inactive
COc1cc2c(N3CCN(C(=O)Nc4ccc(OC(C)C)cc4)CC3)ncnc2cc1OCCCN1CCCCC1	inactive
CO[Si](C)(OC)OC	inactive

For CCCc1c(OCCCOc2ccc(OCC(=O)O)cc2)ccc(C(C)=O)c1O , write its activation.
inactive

For CCC(C(=O)OCCOCCN(CC)CC)c1ccccc1 (stereo not drawn) , write its activation.
inactive

For Cc1cc(O)c(C(C)C)cc1Cl , write its activation.
inactive

---

# experiment: qHTS assay to identify small molecule antagonists of the peroxisome proliferator-activated receptor delta (PPARd) signaling pathway - cell viability counter screen (AID 743213); further: nearly all actives have a fitted effect of over 50% in size
# condition-info: PPARd-bla HEK293H viability, CellTiter-Glo luminescence, 17 h; series mostly up to 62 µM
Inconclusive results are not listed. Activity calls are given as the source filed them. Calls come from the whole dose curve; as a rule, active = well fitted cell-killing curve with a large enough effect in the repeat runs; inconclusive = weak or mixed curves; inactive = no such curve, though single readings can be large or run the other way.
Field 'call' accepts t (active), f (inactive)

Would you please look over these solved cases?
substance-smiles	category-label
COc1ccc(CCC(=O)c2c(O)cc(O[C@@H]3O[C@H](CO)[C@@H](O)[C@H](O)[C@H]3O[C@@H]3O[C@@H](C)[C@H](O)[C@@H](O)[C@H]3O)cc2O)cc1O	f
O=C(N[C@@H](c1ccccc1)[C@@H]1CCCCN1)c1cccc(C(F)(F)F)c1Cl	t
Cc1ccc(S(=O)(=O)NC2CCCCC2)cc1	f

I'd appreciate the recorded outcome for C[C@]12CCC(=O)C=C1C=C[C@@H]1[C@@H]2CC[C@@]2(C)[C@H]1CC[C@@]21CCC(=O)O1 from this test.
f

---

# system-under-test: Luciferin 4-monooxygenase (Photinus pyralis)
# experiment: qHTS assay to identify small molecule inhibitors of firefly luciferase (AID 1224835); further: nearly all actives have a fitted effect of over 25% in size
# condition-info: purified P. pyralis luciferase, luminescence inhibition; series mostly up to 115 µM
Results filed as inconclusive are left out. Activity calls are given as the source filed them. The call rests on the fitted dose curve; in most records, active means well fitted inhibition curve with a large enough effect in the repeat runs; inconclusive means weak or mixed curves; inactive means flat fitted curve, though single readings scatter.
Field 'call' accepts active, inactive

compound	category-label
CCCCCCCCCCCC[N+](C)(C)CC(=O)[O-]	inactive
CCCCCCCCCCCC(=O)[O][Sn]([CH2]CCC)([CH2]CCC)[O]C(=O)CCCCCCCCCCC	active
CC(C)C(OC(=O)c1ccccc1)C(C)(C)COC(=O)c1ccccc1 (configuration not stated)	inactive
CC(=O)[C@H]1CC[C@H]2[C@@H]3C[C@H](C)C4=CC(=O)CC[C@]4(C)[C@H]3[C@@H](O)C[C@]12C	inactive
O=C(CCCCCCC(=O)Nc1ccccc1)NO	inactive

I'd appreciate the recorded outcome for NC(=O)N(O)[C@@H]1COc2cc(OCc3ccccc3)ccc21 from this test.
active

I'd appreciate the recorded outcome for C1COCO1 from this test.
inactive

I'd appreciate the recorded outcome for CCC(C)(C)C1CCC(O)CC1 (configuration not stated) from this test.
active

I'd appreciate the recorded outcome for CN(C)CCOC1=Cc2ccccc2Sc2ccc(Cl)cc21 from this test.
inactive

I'd appreciate the recorded outcome for CC(N)CN (configuration not stated) from this test.
inactive

I'd appreciate the recorded outcome for C/C=C/C=C/CCCCCCCO from this test.
inactive

I'd appreciate the recorded outcome for CC(=O)OCC(=O)[C@H]1CC[C@H]2[C@@H]3CCC4=CC(=O)CC[C@]4(C)[C@H]3CC[C@]12C from this test.
inactive

---

# experiment: A CellTox Green Cytotoxicity Assay to monitor cytotoxicity in HepG2 cells - 32 hour (AID 1224883); further: nearly all actives have a fitted effect of over 50% in size; further: potency means the concentration at half of the fitted maximal effect
# condition-info: CellTox Green fluorescence; series mostly up to 76.8 µM
Results filed as inconclusive are left out. The source made the active and inactive calls. The call rests on the fitted dose curve; in most records, active means well fitted activation curve with a large enough effect in the repeat runs; inconclusive means weak or mixed curves; inactive means flat fitted curve, though single readings scatter.
parameter-measured: Potency

Please review the entries below; each comes with its answer.
compound	parameter-measured	result
O=C(c1ccc(O)cc1)c1ccc(Cl)cc1	Potency	inactive
O=C(CCCN1CCN(c2ccc(F)cc2)CC1)NC1c2ccccc2CSc2ccccc21 (stereo not drawn)	Potency	23.9 µM (active)
O=Cc1c(Cl)cccc1Cl	Potency	inactive
Cc1cc2nc3ccc(=[N+](C)C)cc-3sc2cc1N	Potency	inactive
Cc1cc(C(=C2C=CC(=Nc3ccc(S(=O)(=O)O)cc3S(=O)(=O)O)C=C2)c2ccc(Nc3ccc(S(=O)(=O)O)cc3)cc2)ccc1N	Potency	inactive

For O=C(/C=C/c1ccccc1)OCCCc1ccccc1 , write its Potency.
inactive

For O=C1OCCN1/N=C/c1ccc([N+](=O)[O-])o1 , write its Potency.
inactive

For CN1CCCN=C1/C=C/c1cccs1 , write its Potency.
inactive

For C=CC(=O)NCOCC(C)C , write its Potency.
inactive

For CC(CCO)CCc1ccccc1 (stereo not drawn) , write its Potency.
inactive

For CCCCCCCC/C=C\CCCCCCCC(=O)OC(CO)CO , write its Potency.
inactive

For CCCCC(CC)C(=O)OCCOCCOCCOCCOC(=O)C(CC)CCCC (stereo not drawn) , write its Potency.
inactive

For O=C(CS)OCCOC(=O)CS , write its Potency.
inactive

---

# experiment: A CellTox Green Cytotoxicity Assay to monitor cytotoxicity in HepG2 cells - 40 hour (AID 1224879); further: nearly all actives have a fitted effect of over 40% in size
# condition-info: CellTox Green fluorescence; series mostly up to 76.8 µM
Results filed as inconclusive are left out. Active and inactive are the calls of the source. Calls follow the shape of the dose curve; as a rule, active = well fitted activation curve with a large enough effect in the repeat runs; inconclusive = weak or mixed curves; inactive = flat fitted curve, though single readings scatter.
Field 'call' accepts active, inactive

Would you please look over these solved cases?
compound	category-label
COC(OC)(C(=O)c1ccccc1)c1ccccc1	inactive
O=C(O)c1cccc(O)c1	inactive
CN(C)CCOC1=Cc2ccccc2Sc2ccc(Cl)cc21	active
Nc1ccc(C(=O)OCCCOC(=O)c2ccc(N)cc2)cc1	inactive
CCOC(=O)N1CCC(n2c(=O)[nH]c3cc(Cl)ccc32)CC1	inactive
COC(=O)CC(=O)C(C)(C)C	inactive
CC(C)C(=O)O	inactive
CC(C)CCCC(=O)O	inactive

I'd appreciate the recorded outcome for Fc1ccccc1[C@@H](F)COC1CCC(Nc2ncnc3[nH]ncc23)CC1 (some centres undefined) from this test.
inactive

I'd appreciate the recorded outcome for CC(C)(C)CC(C)(C)c1ccc(OCCO)cc1 from this test.
inactive

I'd appreciate the recorded outcome for CCCCN(CCCC)C(=S)SSC(=S)N(CCCC)CCCC from this test.
inactive

I'd appreciate the recorded outcome for CCOC(=O)CC(=O)C(=O)OCC from this test.
inactive

I'd appreciate the recorded outcome for CC1CC(O)CC(C)(C)C1 (centres undefined) from this test.
inactive

I'd appreciate the recorded outcome for Cc1ccc(/C=N/n2c(-c3ccccc3)csc2=S)cc1 from this test.
inactive
